- target: Cholecystokinin receptor type A (Homo sapiens)
- Sequence (P32238 whole entry): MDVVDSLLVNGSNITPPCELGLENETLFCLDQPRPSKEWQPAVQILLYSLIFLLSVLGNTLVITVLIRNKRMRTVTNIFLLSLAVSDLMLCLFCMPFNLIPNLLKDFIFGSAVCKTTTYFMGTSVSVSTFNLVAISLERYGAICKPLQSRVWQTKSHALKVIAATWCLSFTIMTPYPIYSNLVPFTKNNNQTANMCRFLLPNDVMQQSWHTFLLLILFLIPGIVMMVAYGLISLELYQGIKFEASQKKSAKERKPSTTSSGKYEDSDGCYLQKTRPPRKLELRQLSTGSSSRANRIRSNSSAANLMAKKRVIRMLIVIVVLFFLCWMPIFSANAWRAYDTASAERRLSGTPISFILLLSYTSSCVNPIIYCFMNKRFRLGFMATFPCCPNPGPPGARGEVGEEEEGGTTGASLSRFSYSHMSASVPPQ
Where a SMILES comes first, the peptide text is derived from it. [ ]: non-standard residue; d: D form. NMeNle = CCCC[C@H](NC)C(=O)O; dNle = CCCC[C@@H](N)C(=O)O
observable: pKi
# pKi is unitless: minus log10 of the molar concentration; print number only

// worked examples, pKi included
1) CCCC[C@@H](C(=O)N[C@@H](CC(=O)O)C(=O)N[C@@H](Cc1ccccc1)C(N)=O)N(C)C(=O)[C@H](Cc1c[nH]c2ccccc12)NC(=O)CNC(=O)CNC(=O)[C@@H](N)Cc1ccc(O)cc1 (H-YGGW[NMeNle]DF-NH2)    6.06
2) CCCC[C@@H](NC(=O)[C@@H](N)Cc1ccc(O)cc1)C(=O)NCC(=O)N[C@@H](Cc1c[nH]c2ccccc12)C(=O)N(C)[C@@H](CCCC)C(=O)N[C@@H](CC(=O)O)C(=O)N[C@@H](Cc1ccccc1)C(N)=O (H-Y[dNle]GW[NMeNle]DF-NH2)    5.41
3) CCCC[C@@H](C(=O)N[C@@H](CC(=O)O)C(=O)N[C@@H](Cc1ccccc1)C(N)=O)N(C)C(=O)[C@@H](Cc1c[nH]c2ccccc12)NC(=O)CNC(=O)[C@@H](C)NC(=O)[C@@H](N)Cc1ccc(O)cc1 (H-Y[dA]G[dW][NMeNle]DF-NH2)    7.49
4) CCCC[C@@H](C(=O)N[C@@H](CC(=O)O)C(=O)N[C@@H](Cc1ccccc1)C(N)=O)N(C)C(=O)[C@H](Cc1c[nH]c2ccccc12)NC(=O)[C@H](CCC(=O)O)NC(=O)[C@@H](Cc1ccccc1)NC(=O)[C@@H](N)Cc1ccc(O)cc1    5.00

Query: Reported pKi, compound CCCC[C@@H](C(=O)N[C@@H](CC(=O)O)C(=O)N[C@@H](Cc1ccccc1)C(N)=O)N(C)C(=O)[C@H](Cc1c[nH]c2ccccc12)NC(=O)CNC(=O)[C@@H](Cc1ccccc1)NC(=O)[C@H](Cc1ccc(O)cc1)NC(=O)[C@@H](N)CC(=O)O : ____
Reply: 5.48

Cited source for all entries: ChEMBL document CHEMBL1145107
